# Test system: CCRF-CEM cell line
# method-summary: dCK cellular assay: CCRF-CEM proliferation in the presence of dT and dC
# Type: cell-based, human
# condition-description: Homo sapiens, read-out: dCK CELLULAR ASSAY IC50 (nM); CCRF-CEM, 200 µM dT and 1 µM dC; read-out: dCK […] ASSAY IC50
Below, each entry is listed with its recorded IC50.
Report the value in nM with no unit label.

Some compounds with recorded IC50:
[
  {
    "compound": "Cc1ccc(NC(=O)c2ccc(CN3CCN(C)CC3)cc2)cc1Nc1nc(-c2nccc(N)n2)cs1 [dCKi1]",
    "property": "IC50",
    "measurement": 6950
  },
  {
    "compound": "Cc1ccc(NC(=O)c2cnc(CN3CCN(C)CC3)nc2)cc1Nc1nc(-c2nccc(N)n2)cs1 [OR0125]",
    "property": "IC50",
    "measurement": 37700
  }
]

Read off the recorded IC50 for Cc1ccc(-c2ccc(S(=O)(=O)N3CCN(C)CC3)cc2)cc1N(CC(C)C)c1nc(-c2nc(N)cc(N)n2)cs1 [OR0637] 84

Kindly indicate its recorded IC50. Item: CCCN(c1nc(-c2nccc(N)n2)cs1)c1cc(-c2ccc(OCC(=O)N3CCN(C)CC3)cc2)ccc1C [OR0597] 220

Read the entry Cc1ccc(Oc2ccc(CN3CCN(C)CC3)cc2)cc1Nc1nc(-c2nccc(N)n2)cs1 [OR0143] and write its reported IC50. 2790

Fill in reported IC50 for this entry: Cc1ccc(C#Cc2ccc(CN3CCN(C)CC3)cc2)cc1Nc1nc(-c2nccc(N)n2)cs1 [OR0153] 2180

Give reported IC50 value for Cc1ccc(-c2ccc(CCN3CCN(C)CC3)cc2)cc1N(CC(C)C)c1nc(-c2nc(N)cc(N)n2)cs1 [OR0603] 255

Give IC50 for the following compound: CCCN(c1nc(-c2nccc(N)n2)cs1)c1cc(-c2ccc(CCN3CCN(C)CC3)nc2)ccc1C [OR0599] 136

----------
# Tested on: dCK-C3S-S74E
# Sequence (P27707 whole entry S74E, form open): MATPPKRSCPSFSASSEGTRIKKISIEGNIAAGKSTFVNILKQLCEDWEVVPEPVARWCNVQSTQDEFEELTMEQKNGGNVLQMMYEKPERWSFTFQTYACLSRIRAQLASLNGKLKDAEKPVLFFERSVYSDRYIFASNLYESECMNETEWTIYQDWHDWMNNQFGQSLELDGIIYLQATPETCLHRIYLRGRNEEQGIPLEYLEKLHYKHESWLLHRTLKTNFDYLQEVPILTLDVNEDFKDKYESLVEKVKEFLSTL
# method-summary: Thermal shift assay (TSA)
# condition-description: mean ± SD
Recorded THERMAL SHIFT ASSAY +Tm (°), one value per entry.
The response must be a number in ° with no trailing unit.

Past entries and their recorded results:
[
  {
    "compound": "Cc1ccc(NC(=O)c2ccc(CN3CCN(C)CC3)s2)cc1Nc1nc(-c2nccc(N)n2)cs1 [OR0241]",
    "THERMAL SHIFT ASSAY +Tm (°)": 13.5
  },
  {
    "compound": "CCCN(c1nc(-c2nc(N)cc(N)n2)cs1)c1cc(-c2c(F)cc(S(=O)(=O)N3CCN(C)CC3)cc2F)ccc1C [OR0647]",
    "THERMAL SHIFT ASSAY +Tm (°)": 21.1
  },
  {
    "compound": "Cc1ccc(-c2ccc(CCCN3CCN(C)CC3)cc2)cc1Nc1nc(-c2nccc(N)n2)cs1 [OR0331]",
    "THERMAL SHIFT ASSAY +Tm (°)": 19.4
  },
  {
    "compound": "CCCN(c1nc(-c2nc(N)cc(N)n2)cs1)c1cc(-c2ccc(S(=O)(=O)NCCN)cc2)ccc1C [OR0651]",
    "THERMAL SHIFT ASSAY +Tm (°)": 20.8
  },
  {
    "compound": "Cc1ccc(-c2ccc(OCCN3CCN(C)CC3)nc2)cc1N(CC(C)C)c1nc(-c2nc(N)cc(N)n2)cs1 [OR0608]",
    "THERMAL SHIFT ASSAY +Tm (°)": 21.0
  },
  {
    "compound": "Cc1ccc(-c2ccc(CCN3CCN(C)CC3)cc2)cc1N(CC1CC1)c1nc(-c2nc(N)cc(N)n2)cs1 [OR0604]",
    "THERMAL SHIFT ASSAY +Tm (°)": 19.7
  }
]

State its THERMAL SHIFT ASSAY +Tm (°) for this compound: CCCN(c1nc(-c2nccc(N)n2)cs1)c1cc(-c2ccc(CCN3CCN(C)CC3)cc2)ccc1C [OR0345] 18.4

Query THERMAL SHIFT ASSAY +Tm (°) for Cc1ccc(C#Cc2ccc(CN3CCN(C)CC3)cc2)cc1Nc1nc(-c2nccc(N)n2)cs1 [OR0153] 16.9

For the compound CCCN(c1nc(-c2nc(N)cc(N)n2)cs1)c1cc(-c2ccc(CCN3CCN(C)CC3)nc2)ccc1C [OR0602] , give its reported THERMAL SHIFT ASSAY +Tm (°). 19.5

# return recorded THERMAL SHIFT ASSAY +Tm (°) for input Cc1ccc(-c2ccc(CCN3CCN(C)CC3)cc2)cc1N(CCCN)c1nc(-c2nc(N)cc(N)n2)cs1 [OR0611] 14.7

Query THERMAL SHIFT ASSAY +Tm (°) for CCCN(c1nc(-c2nc(N)cc(N)n2)cs1)c1cc(-c2ccc(S(=O)(=O)N3CCN(C)CC3)c(OC)c2)ccc1C [OR0635] 20.40

Kindly indicate its recorded THERMAL SHIFT ASSAY +Tm (°). Item: CCCN(c1nc(-c2nc(N)cc(N)n2)cs1)c1cc(-c2ccc(S(=O)(=O)N3CCN(C)CC3)c(OC(F)(F)F)c2)ccc1C [OR0650] 18.6

Name the recorded THERMAL SHIFT ASSAY +Tm (°) of the compound listed here: CCCN(c1nc(-c2nc(N)cc(N)n2)cs1)c1cc(-c2ccc(CN(C)C)cc2)ccc1C [OR0619] 16.9

----------
# activity at 0.078 µM per entry
# Tested on: CCRF-CEM cell line
# method-summary: dCK cellular assay: CCRF-CEM proliferation in the presence of dT and dC
# Type: cell-based, human
# condition-description: Homo sapiens, CCRF-CEM; 78 nM, dT 200 µM + dC 1 µM; read-out: Cell proliferation of the CCRF-CEM cell line Mean (% prolif)
Give your result as the value with the unit written after it.

[
  {
    "entry-smiles": "Cc1ccc(NC(=O)c2ccc(CN3CCN(C)CC3)cc2)cc1Nc1nc(-c2nc(N)cc(N)n2)cs1",
    "activity at 0.078 µM": "95.9%"
  },
  {
    "entry-smiles": "CCCN(c1nc(-c2nccc(N)n2)cs1)c1cc(-c2ccc(CCN3CCN(C)CC3)cc2)ccc1C",
    "activity at 0.078 µM": "82%"
  },
  {
    "entry-smiles": "CCCN(c1nc(-c2nc(N)cc(N)n2)cs1)c1cc(-c2ccc(CCN3CCN(C)CC3)nc2)ccc1C",
    "activity at 0.078 µM": "58.6%"
  },
  {
    "entry-smiles": "Cc1ccc(-c2ccc(CN3CCN(C)CC3)cc2)cc1Nc1nc(-c2nccc(N)n2)cs1",
    "activity at 0.078 µM": "103%"
  },
  {
    "entry-smiles": "CCCN(c1nc(-c2nc(N)cc(N)n2)cs1)c1cc(-c2ccc(CCN3CCN(C)CC3)cc2)ccc1C",
    "activity at 0.078 µM": "85.9%"
  },
  {
    "entry-smiles": "Cc1ccc(NC(=O)c2ccc(CN3CCN(C)CC3)cc2)cc1Nc1nc(-c2nccc(N)n2)cs1",
    "activity at 0.078 µM": "88.7%"
  }
]

Check CCRF-CEM cell line data and give activity at 0.078 µM for Cc1ccc(-c2ccc(CCN3CCN(C)CC3)cc2)cc1Nc1nc(-c2nccc(N)n2)cs1 . 100%

----------
# Tested on: dCK-C3S-S74E
# method-summary: Thermal shift assay (TSA)
# condition-description: 5 μM protein, 50 μM compound
Measured ΔTm, dCK thermal stabilization (TSA) of individual entries
Express your answer in °C, writing the number without its unit.

Solved cases below.
[
  {
    "entry-smiles": "CCCN(c1nc(-c2nc(N)cc(N)n2)cs1)c1cc(-c2ccc(CCN3CCN(C)CC3)cc2)ccc1C",
    "unit-annotation": "°C",
    "ΔTm, dCK thermal stabilization (TSA)": 20
  },
  {
    "entry-smiles": "CCCN(c1nc(-c2nc(N)cc(N)n2)cs1)c1cc(-c2ccc(S(=O)(=O)N3CCN(C)CC3)c(OC)c2)ccc1C",
    "unit-annotation": "°C",
    "ΔTm, dCK thermal stabilization (TSA)": 20.4
  }
]

Return ΔTm, dCK thermal stabilization (TSA) (reported value) for this molecule: CCCN(c1nc(-c2nc(N)cc(N)n2)cs1)c1cc(-c2ccc(CCN3CCN(C)CC3)nc2)ccc1C 19.5

----------
# target-entity: dCK-C3S-S74E
# method-summary: Enzymatic assay (PK/LDH coupled), dC phosphorylation by dCK in the presence of ATP
# Format: biochemical, human
# condition-description: presence of ATP, [dCK] = 100 nM; read-out: ENZYMATIC ASSAY IC50
# Method: For enzymatic assays, cells were re-suspended in 20 mM TRIS, pH 8 500 mM NaCl, 0.1% BRIJ-35 and 5% glycerol buffer and one EDTA free anti-protease tablet was added (Roche). […] Kinetic analyses were performed using a spectrophotometric continuous enzymatic-coupled assay using pyruvate kinase (PK) and lactate dehydrogenase (LDH). […] All measurements were performed on a microplate reader Pherastar FS (BMG Labtech). […]
property: IC50 (µM)
Give just the numeric value; µM need not be written.

Worked examples follow.
[
  {
    "entry-smiles": "COc1cc(-c2ccc(C)c(Nc3nc(-c4nccc(N)n4)cs3)c2)ccc1O",
    "IC50 / µM": 2.27
  },
  {
    "entry-smiles": "CCCN(c1nc(-c2nccc(N)n2)cs1)c1cc(-c2ccc(CCN3CCN(C)CC3)nc2)ccc1C",
    "IC50 / µM": 0.211
  },
  {
    "entry-smiles": "Cc1ccc(NC(=O)c2ccc(CN3CCN(C)CC3)cc2)cc1Nc1nc(-c2ncc(F)c(N)n2)cs1",
    "IC50 / µM": 3.35
  },
  {
    "entry-smiles": "Cc1ccc(OCc2ccc(CN3CCN(C)CC3)cc2)cc1Nc1nc(-c2nccc(N)n2)cs1",
    "IC50 / µM": 1.94
  },
  {
    "entry-smiles": "CCCN(c1nc(-c2nccc(N)n2)cs1)c1cc(-c2ccc(CCN3CCN(C)CC3)cc2)ccc1C",
    "IC50 / µM": 0.315
  },
  {
    "entry-smiles": "CCCN(c1nc(-c2nccc(N)n2)cs1)c1cc(-c2ccc(CCCN3CCN(C)CC3)cc2)ccc1C",
    "IC50 / µM": 0.301
  },
  {
    "entry-smiles": "Cc1ccc(C#Cc2ccc(CN3CCN(C)CC3)cc2)cc1Nc1nc(-c2nccc(N)n2)cs1",
    "IC50 / µM": 2.04
  },
  {
    "entry-smiles": "CN1CCN(Cc2ccc(C(=O)Nc3ccc4c(c3)N(c3nc(-c5nccc(N)n5)cs3)CCCC4)cc2)CC1",
    "IC50 / µM": 3.4
  },
  {
    "entry-smiles": "CCCN(c1nc(-c2nccc(N)n2)cs1)c1cc(-c2ccc(OCCN3CCN(C)CC3)cc2)ccc1C",
    "IC50 / µM": 0.286
  },
  {
    "entry-smiles": "Cc1ccc(-c2ccc(CN3CCN(C)CC3)cc2)cc1Nc1nc(-c2nccc(N)n2)cs1",
    "IC50 / µM": 1.03
  }
]

Assign IC50 to the following record: Cc1ccc(NC(=O)c2ccc(CN3CCN(C)CC3)s2)cc1Nc1nc(-c2nccc(N)n2)cs1 3.77

Give the measured IC50 for Cc1ccc(C#Cc2ccc(CN(C)C)cc2)cc1Nc1nc(-c2nccc(N)n2)cs1 2.14

State its IC50: Cc1ccc(-c2ccc(O)cc2)cc1Nc1nc(-c2nccc(N)n2)cs1 1.76

Look up and report measured IC50 for this entry: Cc1ccc(NC(=O)c2ccc(CCN3CCN(C)CC3)cc2)cc1Nc1nc(-c2nccc(N)n2)cs1 3.46

Return IC50 (reported value) for this compound: CCCN(c1nc(-c2nc(N)cc(N)n2)cs1)c1cc(-c2ccc(CCCN3CCN(C)CC3)cc2)ccc1C 0.137

Quickly give me recorded IC50 for CCCN(c1nc(-c2nc(N)cc(N)n2)cs1)c1cc(-c2ccc(CCN3CCN(C)CC3)cc2)ccc1C 0.121

Return IC50 for the following compound: Cc1ccc(NC(=O)c2ccc(CN3CCN(C)CC3)cc2)cc1Nc1nc(-c2nccc(N)n2)cs1 2.66
